Hello, the source for this data is PubChem BioAssay AID1863, in case you need it.

inhibition: recorded values
# procedure.text: PhoP-dependent GFP reporter repression – Salmonella Typhimurium, primary screen (AID 1863);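 note: 0% = low Mg2+ inducing control and 100% = high Mg2+ repressing control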
# condition.description: S. Typhimurium PhoP-regulated promoter GFP reporter, 4 h; at 50 µM; active compounds read high
Among all 300,000 compounds or so, about 480 (0.16%) were called active. Only a sample is shown. Potency and affinity values are given separately.

CO[C@@H]1[C@@H](OC(N)=O)[C@@H](O)C(Oc2ccc3c(O)c(NC(=O)c4ccc(O)c(CC=C(C)C)c4)c(=O)oc3c2C)OC1(C)C (stereo not given in full) | 12.3% (inactive)
CC1(C)CCC/C(=C\c2ccccc2)C1=O | -2.34% (inactive)
O=C(NC(=S)NNC(=O)c1cc2ccccc2cc1O)c1ccco1 | -4.81% (inactive)
CCOC(=O)/C=c1\s/c(=C\c2ccc(C(F)(F)F)cc2)c(=O)n1CC(=O)NCc1ccco1 | -2.01% (inactive)

Record `O=C(NNC(=O)c1ccccc1O)c1ccco1` . Reported inhibition: 4.25% (inactive)
